Target: human NaV subtype, like NaV 1.7 (Homo sapiens, UniProt Q15858)
Sequence (Q15858 whole entry): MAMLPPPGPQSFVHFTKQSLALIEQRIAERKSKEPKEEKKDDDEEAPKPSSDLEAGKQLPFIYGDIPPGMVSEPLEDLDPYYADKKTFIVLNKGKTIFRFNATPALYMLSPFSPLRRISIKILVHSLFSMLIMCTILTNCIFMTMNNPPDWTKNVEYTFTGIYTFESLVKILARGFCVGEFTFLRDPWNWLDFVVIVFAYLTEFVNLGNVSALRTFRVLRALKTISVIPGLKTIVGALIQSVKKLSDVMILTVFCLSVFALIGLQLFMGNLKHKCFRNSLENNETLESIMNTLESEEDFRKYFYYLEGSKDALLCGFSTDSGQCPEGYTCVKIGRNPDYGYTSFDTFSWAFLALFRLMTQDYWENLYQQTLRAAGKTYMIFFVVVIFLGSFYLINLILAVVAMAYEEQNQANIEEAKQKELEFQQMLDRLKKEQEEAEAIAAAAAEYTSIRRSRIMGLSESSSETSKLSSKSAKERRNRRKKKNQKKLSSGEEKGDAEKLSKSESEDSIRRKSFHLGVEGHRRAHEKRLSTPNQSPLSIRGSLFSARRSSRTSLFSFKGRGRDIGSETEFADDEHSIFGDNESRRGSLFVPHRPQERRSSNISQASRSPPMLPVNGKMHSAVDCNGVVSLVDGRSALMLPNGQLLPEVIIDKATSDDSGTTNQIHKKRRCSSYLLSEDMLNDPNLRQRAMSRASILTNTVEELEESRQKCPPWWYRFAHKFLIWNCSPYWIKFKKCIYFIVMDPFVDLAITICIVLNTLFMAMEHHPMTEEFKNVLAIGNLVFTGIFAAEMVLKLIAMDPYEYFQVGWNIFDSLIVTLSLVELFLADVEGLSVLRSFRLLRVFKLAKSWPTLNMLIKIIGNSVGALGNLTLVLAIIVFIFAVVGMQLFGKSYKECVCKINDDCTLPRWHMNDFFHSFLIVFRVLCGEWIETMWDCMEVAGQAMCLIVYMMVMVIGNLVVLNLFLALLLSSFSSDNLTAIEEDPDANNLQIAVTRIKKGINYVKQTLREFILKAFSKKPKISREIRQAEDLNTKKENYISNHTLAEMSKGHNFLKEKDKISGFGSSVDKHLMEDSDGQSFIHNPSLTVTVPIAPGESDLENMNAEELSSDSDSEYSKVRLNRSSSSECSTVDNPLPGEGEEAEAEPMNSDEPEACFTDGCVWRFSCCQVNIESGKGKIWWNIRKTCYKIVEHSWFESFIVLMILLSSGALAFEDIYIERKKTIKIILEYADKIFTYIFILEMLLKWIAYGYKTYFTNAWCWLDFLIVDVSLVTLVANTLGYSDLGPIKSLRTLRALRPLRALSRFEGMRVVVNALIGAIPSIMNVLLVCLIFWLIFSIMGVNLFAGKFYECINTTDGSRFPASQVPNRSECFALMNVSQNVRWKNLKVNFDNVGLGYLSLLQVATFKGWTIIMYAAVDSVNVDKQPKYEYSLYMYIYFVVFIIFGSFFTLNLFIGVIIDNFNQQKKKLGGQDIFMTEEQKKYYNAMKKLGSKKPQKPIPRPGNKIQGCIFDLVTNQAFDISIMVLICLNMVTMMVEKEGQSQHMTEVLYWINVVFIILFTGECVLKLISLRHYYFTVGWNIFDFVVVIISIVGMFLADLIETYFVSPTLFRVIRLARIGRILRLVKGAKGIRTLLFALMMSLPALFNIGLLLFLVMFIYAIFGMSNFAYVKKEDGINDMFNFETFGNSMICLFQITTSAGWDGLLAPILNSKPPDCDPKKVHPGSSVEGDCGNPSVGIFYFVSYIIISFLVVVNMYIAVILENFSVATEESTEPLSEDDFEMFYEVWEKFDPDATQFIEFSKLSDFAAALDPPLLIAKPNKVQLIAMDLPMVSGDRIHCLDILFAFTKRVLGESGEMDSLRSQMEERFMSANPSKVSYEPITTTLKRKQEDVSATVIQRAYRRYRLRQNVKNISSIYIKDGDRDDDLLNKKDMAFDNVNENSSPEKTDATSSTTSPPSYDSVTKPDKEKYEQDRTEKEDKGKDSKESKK
Test: E-VIPR optical membrane potential assay with electrical stimulation
Details: active against one or more sodium channels; Table 3 does not name the assay or NaV subtype; read-out: Binned Activity Data (IC50)
pIC50: −log10 of the molar value.
Property: pIC50; scope: individual molecules

Molecule	Tested On	Assay Value
COc1cc(C(=O)N2CC[C@]3(c4ccc(C(F)(F)F)n4CCN3C)[C@H](F)C2)ccc1OC(C)C [Compound 3]	human NaV subtype, like NaV 1.7 (Homo sapiens, UniProt Q15858)	< 5.30
CC(=O)c1ccc2n1CC(C)(C)NC21CCN(C(=O)c2ccc(OC(C)C)c(C)c2)CC1	human NaV subtype, like NaV 1.7 (Homo sapiens, UniProt Q15858)	≥ 5.70
CC(C)Oc1ccc(C(=O)N2CCC3(CC2)c2c(F)cc(C(F)(F)F)n2CCN3C)cc1C#N	human NaV subtype, like NaV 1.7 (Homo sapiens, UniProt Q15858)	≥ 5.70

Which pIC50 is reported for this molecule? CC(C)Oc1ccc(C(=O)N2CCC3(CC2)c2ccc(C(F)(F)C(F)(F)F)n2CCN3C)cc1CO ≥ 5.70

Try the molecule CCCCOc1cc(C(=O)N2CCC3(CC2)c2ccc(C(F)(F)F)n2CCN3C)ccc1OC ≥ 5.70

Would you mind doing CN1CCn2c(C(F)(F)F)cc(Cl)c2C12CCN(C(=O)c1ccc(COCC(F)(F)F)cc1)CC2 as well? ≥ 5.70

Could you do the same for CN1CCn2c(C(F)(F)F)ccc2C12CCN(C(=O)c1ccc(CC(C)(C)O)cc1)CC2 , please? ≥ 5.70

Thanks! And COc1ccc(C(=O)N2CCC3(CC2)c2ccc(C(=O)c4ccccc4)n2CCN3C)cc1Cl ? 5.30 to 5.70
